Data credit: ChEMBL document CHEMBL1201862

Consider the following compounds; for each one, report its GI50.
Tested on: HL-60
Assay: NCI tumour cell line growth inhibition, 48 h
Active and inactive are the calls of the source. Rule as the data show it: active = GI50 up to about 1.1 µM and inactive = higher.

Worked cases, answers included:
Exam item: Return GI50 for the following compound: O=[N+]([O-])/C(C(Cl)=C(Cl)Cl)=C(/Br)SCc1ccccc1
Marked response: 0.222 µM (active)

Exam item: Tell me GI50 reported for COc1cccc(CN(C(=O)/C=C\Sc2ccccc2)C(C)(C)C)c1
Marked response: 20.5 µM (inactive)

Exam item: Give GI50 for the following compound: c1ccc(C2(c3cc4ccccc4[nH]3)OCCO2)nc1
Marked response: > 100 µM (inactive)

Exam item: Determine its reported GI50: O=C1C(c2c(O)[nH]c3ccc(Cl)cc23)=Nc2ccccc21
Marked response: 28.8 µM (inactive)

Exam item: Assign GI50 to the following record: C=CC(OC(C)=O)c1ccc(OC(=O)C(C)C)c(OC)c1 (stereo unspecified)
Marked response: 2.79 µM (inactive)

For the 3 compounds below, give their GI50 values.
1. N#CCCC[Si]12OCCN(CCO1)CCO2
2. CN(C)Cc1cc(/N=N/c2cccc(Cl)c2)ccc1O
3. COc1cc(/C=C/C(=O)Oc2ccccc2)ccc1C(=O)O/C=C/c1ccccc1

Marked response:
1. > 100 µM (inactive)
2. 17.3 µM (inactive)
3. > 100 µM (inactive)
